The entries below are paired with their reported percent reduction in ELISA signal.
testedTarget: VSTB174
Sequence (VH, as listed by the source, chain 1 of 2): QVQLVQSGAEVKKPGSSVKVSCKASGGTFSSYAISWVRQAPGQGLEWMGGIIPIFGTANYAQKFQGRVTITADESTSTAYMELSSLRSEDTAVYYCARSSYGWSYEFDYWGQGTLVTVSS
Sequence (VL, as listed by the source, chain 2 of 2): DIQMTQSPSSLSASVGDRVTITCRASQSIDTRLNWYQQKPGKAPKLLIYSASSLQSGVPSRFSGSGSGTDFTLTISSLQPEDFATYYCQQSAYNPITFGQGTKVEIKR
assaySummary: peptide blocking ELISA on plate-bound VISTA, peptide 2 ug/mL
Could you give me the number in %? Just the number is fine.

binder | quantityKind | unitSymbol | quantitativeReadout
GEVQTCSERRPIRNL (synthetic overlapping peptide from human VISTA) [Spiked Peptide 10 (GEVQTCSERRPIRNL)] | percent reduction in ELISA signal | % | 2
MRNLTLLDSGLYCCL (synthetic overlapping peptide from human VISTA) [Spiked Peptide 21 (MRNLTLLDSGLYCCL)] | percent reduction in ELISA signal | % | 15
YRSSRGEVQTCSERR (synthetic overlapping peptide from human VISTA) [Spiked Peptide 9 (YRSSRGEVQTCSERR)] | percent reduction in ELISA signal | % | 0

Lookup: Which percent reduction in ELISA signal is reported for this binder? SDHHGNFSITMRNLT (synthetic overlapping peptide from human VISTA) [Spiked Peptide 19 (SDHHGNFSITMRNLT)]
Found: 10
